Target: PPAR-γ (Homo sapiens)
Sequence (P37231 whole entry): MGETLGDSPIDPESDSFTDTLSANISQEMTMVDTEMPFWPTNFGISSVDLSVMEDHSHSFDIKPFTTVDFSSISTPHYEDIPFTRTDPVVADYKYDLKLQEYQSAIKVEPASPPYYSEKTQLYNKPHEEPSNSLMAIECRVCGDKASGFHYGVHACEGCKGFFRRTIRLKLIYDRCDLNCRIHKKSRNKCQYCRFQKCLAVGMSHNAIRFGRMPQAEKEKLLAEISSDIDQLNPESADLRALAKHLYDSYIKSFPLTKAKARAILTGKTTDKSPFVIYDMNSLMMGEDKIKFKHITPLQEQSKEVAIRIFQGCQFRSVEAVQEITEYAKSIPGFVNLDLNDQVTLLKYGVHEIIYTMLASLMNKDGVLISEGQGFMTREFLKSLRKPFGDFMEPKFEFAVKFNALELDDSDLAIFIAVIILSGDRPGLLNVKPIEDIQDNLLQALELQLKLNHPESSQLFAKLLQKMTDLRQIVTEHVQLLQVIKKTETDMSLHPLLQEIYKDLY
Sequence (P19793 whole entry partner): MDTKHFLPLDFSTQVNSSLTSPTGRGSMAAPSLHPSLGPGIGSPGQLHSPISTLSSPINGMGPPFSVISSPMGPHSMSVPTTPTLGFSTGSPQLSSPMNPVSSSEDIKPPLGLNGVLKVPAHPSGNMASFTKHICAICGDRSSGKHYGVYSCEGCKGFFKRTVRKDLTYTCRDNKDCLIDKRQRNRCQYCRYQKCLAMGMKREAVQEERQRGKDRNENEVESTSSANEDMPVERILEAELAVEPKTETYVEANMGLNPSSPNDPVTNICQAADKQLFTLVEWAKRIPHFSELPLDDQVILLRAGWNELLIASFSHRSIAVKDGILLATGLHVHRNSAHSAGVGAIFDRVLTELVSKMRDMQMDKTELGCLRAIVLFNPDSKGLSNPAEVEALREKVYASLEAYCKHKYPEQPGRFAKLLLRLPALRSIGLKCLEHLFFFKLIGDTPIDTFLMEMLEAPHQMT
Experiment: Transient transfection and transcription assay (luciferase reporter, U2OS cells)
Conditions: 24 h treatment
EXPERIMENTAL ENDPOINT: EC50 (µM)

a. C[C@@](Cc1ccc(Oc2cc(N3CCN(Cc4ccccc4)CC3)nc(N)n2)cc1)(Oc1ccccc1)C(=O)O [Compound 3]
b. CC(Cc1ccc(Oc2cc(N3CCN(Cc4cccc(Cl)c4)CC3)nc(N)n2)cc1)(Oc1ccccc1)C(=O)O (stereo not shown) [Compound 11]
Min EC50? a | b Respond with the label that goes with your answer.
a

A. CC(Cc1ccc(Oc2cc(N3CCN(Cc4ccccc4)CC3)nc(N3CCCC3)n2)cc1)(Oc1ccccc1)C(=O)O (stereo not shown) [Compound 54]
B. COc1ccc(OC(C)(Cc2ccc(Oc3cc(N4CCN(Cc5ccccc5)CC4)nc(N)n3)cc2)C(=O)O)cc1 (stereo not shown) [Compound 30]
Min EC50? A | B Respond with the label that goes with your answer.
A
(A: 3.8 µM, B: 5.75 µM)

====

EXPERIMENTAL ENDPOINT: melting point

Would you please look over these solved cases?
[[record]]
compound = "CN(C)c1nc(Oc2ccc(CC(C)(Oc3ccccc3)C(=O)O)cc2)cc(N2CCN(Cc3ccccc3)CC2)n1 (stereo not drawn) [Compound 49]"
readout_value = "136 to 138 °C"

[[record]]
compound = "CC(Cc1ccc(Oc2cc(N3CCN(Cc4cccc(Br)c4)CC3)nc(N)n2)cc1)(Oc1ccccc1)C(=O)O (stereo not drawn) [Compound 16]"
readout_value = "119 to 120 °C"

[[record]]
compound = "CC(Cc1ccc(Oc2cc(N3CCN(Cc4ccccc4)CC3)nc(N3CCCC3)n2)cc1)(Oc1ccccc1)C(=O)O (stereo not drawn) [Compound 54]"
readout_value = "126 to 127 °C"

[[record]]
compound = "CCNc1nc(Oc2ccc(CC(C)(Oc3ccccc3)C(=O)O)cc2)cc(N2CCN(Cc3ccccc3)CC2)n1 (stereo not drawn) [Compound 50]"
readout_value = "106 to 107 °C"

[[record]]
compound = "CC(Cc1ccc(Oc2cc(N3CCN(c4ccccn4)CC3)nc(N)n2)cc1)(Oc1ccccc1)C(=O)O (stereo not drawn) [Compound 19]"
readout_value = "110 to 111 °C"


Bench note: what melting point did CC(Cc1ccc(Oc2cc(N3CCN(Cc4ccc(Br)cc4)CC3)nc(N)n2)cc1)(Oc1ccccc1)C(=O)O (stereo not drawn) [Compound 15] show?
112 to 114 °C

Bench note: what melting point did CC(Cc1ccc(Oc2cc(N3CCN(Cc4ccc(C(F)(F)F)cc4)CC3)nc(N)n2)cc1)(Oc1ccccc1)C(=O)O (stereo not drawn) [Compound 8] show?
114 to 115 °C

Bench note: what melting point did CC(Cc1ccc(Oc2cc(N3CCN(Cc4ccncc4)CC3)nc(N)n2)cc1)(Oc1ccccc1)C(=O)O (stereo not drawn) [Compound 40] show?
137 to 138 °C

Bench note: what melting point did CC(Cc1ccc(Oc2cc(N3CCN(CC(=O)c4ccccc4)CC3)nc(N)n2)cc1)(Oc1ccccc1)C(=O)O (stereo not drawn) [Compound 18] show?
107 to 108 °C

====

Target: UniProtKB P37231
Test: Transient transfection and transcription assay (luciferase reporter, U2OS cells)
Settings: 24 h treatment
EXPERIMENTAL ENDPOINT: EC50 (µM)

[[record]]
molecule = "CC(Cc1ccc(Oc2cc(N3CCN(Cc4ccccc4)CC3)nc(N)n2)cc1)(Oc1ccc(C(F)(F)F)cc1)C(=O)O (centres unmarked)"
experimental_endpoint = "EC50"
readout_value = 2.24

[[record]]
molecule = "CC(Cc1ccc(Oc2cc(N3CCN(Cc4ccc(Br)cc4)CC3)nc(N)n2)cc1)(Oc1ccccc1)C(=O)O (centres unmarked)"
experimental_endpoint = "EC50"
readout_value = 5.89


P. CC(Cc1ccc(Oc2cc(N3CCN(Cc4ccccc4)CC3)nc(N)n2)cc1)(Oc1ccc(-c2ccccc2)cc1)C(=O)O (centres unmarked)
Q. CC(Cc1ccc(Oc2cc(N3CCN(c4ccccn4)CC3)nc(N)n2)cc1)(Oc1ccccc1)C(=O)O (centres unmarked)
Min EC50? P | Q Respond with the label that goes with your answer.
P
(P: 2.57 µM, Q: 6.31 µM)

====

Biological target: PPAR-γ (Homo sapiens)
Experiment: Transient transfection and transcription assay (luciferase reporter, U2OS cells)
Settings: 24 h treatment
pEC50: −log10 of the molar value.
EXPERIMENTAL ENDPOINT: pEC50

[[record]]
compound = "CC(Cc1ccc(Oc2cc(N3CCN(Cc4ccccc4)CC3)nc(NCc3ccccc3)n2)cc1)(Oc1ccccc1)C(=O)O (stereo not shown) [Compound 47]"
experimental_endpoint = "pEC50"
readout_value = 5.20

[[record]]
compound = "CC(Cc1ccc(Oc2cc(N3CCN(Cc4ccccc4)CC3)nc(N3CCOCC3)n2)cc1)(Oc1ccccc1)C(=O)O (stereo not shown) [Compound 53]"
experimental_endpoint = "pEC50"
readout_value = 5.40

[[record]]
compound = "C[C@@](Cc1ccc(Oc2cc(N3CCN(Cc4ccccc4)CC3)nc(N)n2)cc1)(Oc1ccccc1)C(=O)O (stereo in doubt) [Compound 4]"
experimental_endpoint = "pEC50"
readout_value = 5.24

[[record]]
compound = "CC(Cc1ccc(Oc2cc(N3CCN(Cc4ccccc4)CC3)ncn2)cc1)(Oc1ccccc1)C(=O)O (stereo not shown) [Compound 28]"
experimental_endpoint = "pEC50"
readout_value = 5.33


====

Test system: T24
Test: Growth inhibition, modified MTT assay, T24
Type: cell-based
Conditions: Homo sapiens, T-24, mean of 3 independent tests
Method: The growth inhibition was evaluated by the modified MTT assay. Briefly, the cells were seeded at 1×10^4 cells/well in 96-well plates (Falcon, Calif., USA), and incubated for 24 h in […] culture media with 10% FCS. The media were then replaced by serum-free medium. […] After the removal of the supernatant, the purple-blue sediment was dissolved in 100 μL/well DMSO, and the optical densities were read on the multi-well scanning spectrophotometer (Labsystems Dragon, Finland) at 492 nm (A492). […]
pIC50: −log10 of the molar value.
EXPERIMENTAL ENDPOINT: pIC50

[[record]]
molecule = "CC(Cc1ccc(Oc2cc(N3CCN(CC(=O)c4ccccc4)CC3)nc(N)n2)cc1)(Oc1ccccc1)C(=O)O (stereo not drawn) [Compound 18]"
readout_value = "< 4.30"

[[record]]
molecule = "CC(Cc1ccc(Oc2cc(N3CCN(CC4CCCCC4)CC3)nc(N)n2)cc1)(Oc1ccccc1)C(=O)O (stereo not drawn) [Compound 27]"
readout_value = "< 4.30"

[[record]]
molecule = "CC(Cc1ccc(Oc2cc(N3CCN(Cc4cccc(Cl)c4)CC3)nc(N)n2)cc1)(Oc1ccccc1)C(=O)O (stereo not drawn) [Compound 11]"
readout_value = "< 4.30"


Bench note: what pIC50 did CC(Cc1ccc(Oc2cc(N3CCN(c4ccccc4)CC3)nc(N)n2)cc1)(Oc1ccccc1)C(=O)O (stereo not drawn) [Compound 22] show?
4.65

Bench note: what pIC50 did CN(C)c1nc(Oc2ccc(CC(C)(Oc3ccccc3)C(=O)O)cc2)cc(N2CCN(Cc3ccccc3)CC2)n1 (stereo not drawn) [Compound 49] show?
< 4.30

Bench note: what pIC50 did CC(Cc1ccc(Oc2cc(N3CCN(Cc4ccccc4)CC3)ncn2)cc1)(Oc1ccccc1)C(=O)O (stereo not drawn) [Compound 28] show?
4.71

====

Target: PPAR-γ (Homo sapiens)
Experiment: Transient transfection and transcription assay (luciferase reporter, U2OS cells)
Details: 24 h treatment
EXPERIMENTAL ENDPOINT: EC50 (µM)

[[record]]
compound = "CC(Cc1ccc(Oc2cc(N3CCN(c4ccccc4)CC3)nc(N)n2)cc1)(Oc1ccccc1)C(=O)O (stereo not drawn)"
unit_text = "µM"
readout_value = 4.68

[[record]]
compound = "CC(Cc1ccc(Oc2cc(N3CCN(Cc4ccccc4)CC3)nc(N)n2)cc1)(Oc1ccccc1)C(=O)O (racemic)"
unit_text = "µM"
readout_value = 6.76

[[record]]
compound = "Cc1cccc(CN2CCN(c3cc(Oc4ccc(CC(C)(Oc5ccccc5)C(=O)O)cc4)nc(N)n3)CC2)c1 (stereo not drawn)"
unit_text = "µM"
readout_value = 4.17


====

Target: PPAR-γ (Homo sapiens)
Experiment: Transient transfection and transcription assay (luciferase reporter, U2OS cells)
Conditions: 24 h treatment
EXPERIMENTAL ENDPOINT: EC50 (µM)

[[record]]
molecule = "CC(Cc1ccc(Oc2cc(N3CCN(Cc4cccc(Br)c4)CC3)nc(N)n2)cc1)(Oc1ccccc1)C(=O)O (stereo not shown) [Compound 16]"
system_tested = "PPAR-γ (Homo sapiens)"
readout_value = 6.31

[[record]]
molecule = "CC(Cc1ccc(Oc2cc(N3CCN(CC(=O)c4ccccc4)CC3)nc(N)n2)cc1)(Oc1ccccc1)C(=O)O (stereo not shown) [Compound 18]"
system_tested = "PPAR-γ (Homo sapiens)"
readout_value = 6.46

[[record]]
molecule = "CC(Cc1ccc(Oc2cc(N3CCN(CC4CCCCC4)CC3)nc(N)n2)cc1)(Oc1ccccc1)C(=O)O (stereo not shown) [Compound 27]"
system_tested = "PPAR-γ (Homo sapiens)"
readout_value = 5.37

[[record]]
molecule = "CC(Cc1ccc(Oc2cc(N3CCN(Cc4cccc(C(F)(F)F)c4)CC3)nc(N)n2)cc1)(Oc1ccccc1)C(=O)O (stereo not shown) [Compound 10]"
system_tested = "PPAR-γ (Homo sapiens)"
readout_value = 4.27

[[record]]
molecule = "CC(Cc1ccc(Oc2cc(N3CCN(Cc4ccccc4)CC3)nc(N3CCCCC3)n2)cc1)(Oc1ccccc1)C(=O)O (stereo not shown) [Compound 52]"
system_tested = "PPAR-γ (Homo sapiens)"
readout_value = 4.68

[[record]]
molecule = "CC(Cc1ccc(Oc2cc(Oc3ccccc3)nc(N3CCN(Cc4ccccc4)CC3)n2)cc1)(Oc1ccccc1)C(=O)O (stereo not shown) [Compound 44]"
system_tested = "PPAR-γ (Homo sapiens)"
readout_value = 4.68

[[record]]
molecule = "CCNc1nc(Oc2ccc(CC(C)(Oc3ccccc3)C(=O)O)cc2)cc(N2CCN(Cc3ccccc3)CC2)n1 (stereo not shown) [Compound 50]"
system_tested = "PPAR-γ (Homo sapiens)"
readout_value = 6.03

